- System under test: NTCP (Homo sapiens, UniProt Q14973)
- Sequence (Q14973 whole entry): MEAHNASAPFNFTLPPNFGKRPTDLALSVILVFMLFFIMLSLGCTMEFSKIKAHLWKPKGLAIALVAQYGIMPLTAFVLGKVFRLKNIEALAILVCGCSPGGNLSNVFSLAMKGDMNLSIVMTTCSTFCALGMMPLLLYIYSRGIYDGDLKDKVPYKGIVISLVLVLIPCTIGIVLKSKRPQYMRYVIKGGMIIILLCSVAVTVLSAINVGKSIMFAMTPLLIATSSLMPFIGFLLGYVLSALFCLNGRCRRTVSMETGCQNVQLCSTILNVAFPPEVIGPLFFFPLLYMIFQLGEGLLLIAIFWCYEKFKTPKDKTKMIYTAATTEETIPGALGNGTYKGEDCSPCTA
- Method summary: Transport inhibition in NTCP-HEK293 cells
- Settings: NTCP IC50, substrate [3H]TC, triterpenoid inhibitors; 1 µM [3H]TC, 10 min after 5 min preincubation
pIC50: −log10 of the molar value.
Each record here notes measured pIC50.
Recorded metric: pIC50

1) C=C(C)[C@@H]1CC[C@]2(C)CC[C@]3(C)[C@H](CC[C@@H]4[C@@]5(C)CCC(=O)C(C)(C)[C@@H]5CC[C@]43C)[C@@H]12 | 3.62
2) C=C(C)[C@@H]1CC[C@]2(CO)CC[C@]3(C)[C@H](CC[C@@H]4[C@@]5(C)CC[C@H](OC(=O)/C=C/c6ccc(O)c(O)c6)C(C)(C)[C@@H]5CC[C@]43C)[C@@H]12 | 3.89

---

- System under test: SOAT (Homo sapiens)
- Construct: The full-length open reading frames of NTCP, ASBT, and SOAT were cloned; expressed in transfected cells; host or cells: Flp-In T-REX HEK293 (SOAT-HEK293), tetracycline-induced
- Sequence (Q3KNW5 1-377): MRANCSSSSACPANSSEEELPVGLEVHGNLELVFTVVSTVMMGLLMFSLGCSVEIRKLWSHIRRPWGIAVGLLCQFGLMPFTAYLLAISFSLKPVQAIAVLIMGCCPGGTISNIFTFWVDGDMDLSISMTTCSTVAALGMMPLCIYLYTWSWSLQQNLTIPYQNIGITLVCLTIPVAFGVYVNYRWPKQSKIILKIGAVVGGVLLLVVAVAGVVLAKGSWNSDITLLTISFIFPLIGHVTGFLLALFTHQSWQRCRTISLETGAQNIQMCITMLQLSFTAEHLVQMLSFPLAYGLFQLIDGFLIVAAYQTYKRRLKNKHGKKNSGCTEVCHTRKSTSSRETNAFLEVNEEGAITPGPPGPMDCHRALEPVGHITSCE
- Method summary: Transport inhibition in SOAT-HEK293 cells
- Type: cell-based
- Settings: SOAT IC50, substrate [3H]DHEAS, triterpenoid inhibitors; 1 µM [3H]DHEAS, 10 min after 5 min preincubation
pIC50: −log10 of the molar value.
Recorded metric: pIC50

1. C=C(C)[C@@H]1CC[C@]2(CO)CC[C@]3(C)[C@H](CC[C@@H]4[C@@]5(C)CC[C@H](O)C(C)(C)[C@@H]5CC[C@]43C)[C@@H]12 [Betulin] | 3.04

---

- System under test: SOAT (Homo sapiens, UniProt Q3KNW5)
- Construct: The full-length open reading frames of NTCP, ASBT, and SOAT were cloned; expressed in transfected cells; host or cells: Flp-In T-REX HEK293 (SOAT-HEK293), tetracycline-induced
- Method summary: Transport inhibition in SOAT-HEK293 cells
- Format: cell-based
- Settings: triterpenoid inhibitors; 1 µM [3H]TLC, 10 min after 5 min preincubation; read-out: SOAT IC50, substrate [3H]TLC
pIC50: −log10 of the molar value.
Recorded metric: pIC50

1) C=C(C)[C@@H]1CC[C@]2(C)CC[C@]3(C)[C@H](CC[C@@H]4[C@@]5(C)CCC(=O)C(C)(C)[C@@H]5CC[C@]43C)[C@@H]12 | 3.91
2) C=C(C)[C@@H]1CC[C@]2(CO)CC[C@]3(C)[C@H](CC[C@@H]4[C@@]5(C)CC[C@H](OC(=O)/C=C/c6ccc(O)c(O)c6)C(C)(C)[C@@H]5CC[C@]43C)[C@@H]12 | 4.42
3) C=C(C)[C@@H]1CC[C@]2(C(=O)O)CC[C@]3(C)[C@H](CC[C@@H]4[C@@]5(C)CC[C@H](O)C(C)(C)[C@@H]5CC[C@]43C)[C@@H]12 | 5.02
